Molecular target: Heat shock protein HSP 90-alpha (Homo sapiens, UniProt P07900)
Format: functional, organism-based
Calls of active or inactive are those of the source.
AC50 by entry:
Recorded Endpoint: AC50

compound=CCCCCCCCOC(=O)c1cc([N+](=O)[O-])c(Sc2[nH]cnc3ncnc2-3)c([N+](=O)[O-])c1 recorded_result="2.18 µM (active)"
compound=C(C#CCCCCCCCCC[n+]1ccccc1)#CCCCCCCCCC[n+]1ccccc1 recorded_result="3.58 µM (active)"
compound=COc1cc(/C=C2\SC(=S)N(Nc3ncc(C(F)(F)F)cc3Cl)C2=O)ccc1O recorded_result="12.4 µM (active)"
compound=COc1ccc(-c2sc3ccccc3c2/C=C/c2ccncc2)cc1 recorded_result="3.9 µM (active)"
compound="COc1ccc(S(=O)(=O)NC2CC3CCC2C3)cc1Cl (configuration not stated)" recorded_result="3.41 µM (active)"
compound=CCCCCCCCCCOC(=O)Cn1c(COc2ccc(Cl)cc2)[n+](C)c2ccccc21 recorded_result="7.94 µM (active)"
compound=Nc1ncnc2c1ncn2[C@@H]1O[C@H](COP(=O)(O)O)[C@@H](O)[C@@H]1O recorded_result="1.92 µM (active)"

Hey, just so you know, these numbers are from ChEMBL document CHEMBL1201862.
